assay: Stability in CD-1 mouse plasma assessed as half life at 1 uM incubated for 15 mins by HPLC-MS/MS analysis; type: ADME, cell-free
result.type: half-life at 1 µM
Please answer in the form of a number followed by its unit of measurement.

Exercise: So what does the record say about half-life at 1 µM for `C=CC[C@@]12C[C@H](CC=C(C)C)C(C)(C)[C@@](CC=C)(C(=O)C(C(C)=O)=C1[O-])C2=O.[Na+]` ?
Key: 2.57 h

* * *

experiment: Metabolic stability in mouse liver microsomes assessed as intrinsic clearance at 1 uM incubated for 120 mins in presence of NADPH by HPLC-MS/MS analysis; type: ADME, Microsome; conditions: read-out: CLH
result.type: microsomal CLint at 1 µM
Please answer in the form of a number followed by its unit of measurement.

Exercise: So what does the record say about microsomal CLint at 1 µM for `C=CC[C@@]12C[C@H](CC=C(C)C)C(C)(C)[C@@](CC=C)(C(=O)C(C(C)=O)=C1[O-])C2=O.[Na+]` ?
Key: 44.7 µL/min/mg
